Taken from the supplement of paper PMC10567573.

B1: TRAF3IP2 (parent)
chain: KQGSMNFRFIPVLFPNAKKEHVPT

# Variants of: B1
# test-name: protein stability index of a GFP-peptide fusion (GPS, HEK-293T) (PSI 1-6); higher = more stable;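 note: lentivirally expressed fusions sorted by FACS into six bins by GFP to DsRed ratio, PSI derived from sequencing read proportions per bin multiplied by bin number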
# condition-details: c terminus: a fixed tail appended
reported-endpoint: protein stability index
In your answer, state the number alone without any accompanying words.

*Q* Look up protein stability index: K18G
*A* 2.04

*Q* Also, H21L please.
*A* 2.23

*Q* Also, G3V please.
*A* 2.06

*Q* Also, T24A please.
*A* 2.25

*Q* Also, R8T please.
*A* 2.04

*Q* Also, K18S please.
*A* 1.71

*Q* Also, K19I please.
*A* 1.59

*Q* Also, I10T please.
*A* 2.07

*Q* Also, V22L please.
*A* 2.09

*Q* Also, G3I please.
*A* 1.77

*Q* Also, K18H please.
*A* 1.89

*Q* Also, L13H please.
*A* 2.38

*Q* Also, N16P please.
*A* 1.92

*Q* Also, V22C please.
*A* 2

*Q* Also, S4L please.
*A* 1.2

*Q* Also, L13M please.
*A* 1.77

*Q* Also, H21D please.
*A* 2.06

*Q* Also, P23H please.
*A* 1.83

*Q* Also, K19G please.
*A* 1.95

*Q* Also, V22Y please.
*A* 1.91

*Q* Also, K19L please.
*A* 1.78

*Q* Also, K19F please.
*A* 1.98

*Q* Also, H21F please.
*A* 1.66

*Q* Also, L13N please.
*A* 2.28

*Q* Also, S4Y please.
*A* 2.14

*Q* Also, E20D please.
*A* 2.33

*Q* Also, F7I please.
*A* 2.12

*Q* Also, R8I please.
*A* 2.88

*Q* Also, K1F please.
*A* 2.23

*Q* Also, N6G please.
*A* 1.56

*Q* Also, F14H please.
*A* 2.12

*Q* Also, V12R please.
*A* 2.49

*Q* Also, F9E please.
*A* 3.94

*Q* Also, R8M please.
*A* 1.88

*Q* Also, Q2P please.
*A* 1.93

*Q* Also, K18R please.
*A* 1.6

*Q* Also, H21G please.
*A* 2.3

*Q* Also, P15F please.
*A* 2.2

*Q* Also, I10K please.
*A* 2.56

*Q* Also, I10S please.
*A* 2.46

*Q* Also, I10R please.
*A* 2.75

*Q* Also, K1V please.
*A* 1.95

*Q* Also, A17S please.
*A* 2.21

*Q* Also, E20H please.
*A* 2.03

*Q* Also, E20S please.
*A* 1.73

*Q* Also, P11S please.
*A* 1.36
